- Tested on: XF498
- EXPERIMENT SUMMARY: NCI tumour cell line growth inhibition, 48 h
Calls of active or inactive are those of the source. Rule as the data show it: active = GI50 up to about 1.1 µM and inactive = higher.
Outcomes: 1 (yes) (active), 0 (no) (inactive)

{"COMPOUND": "CCOC(=O)C1CC/C(=C(/C#N)C(=O)OC)N1 (centres undefined)", "ANSWER LABEL": "0 (no)"}
{"COMPOUND": "N[C@H](COCc1ccccc1)c1ccccc1", "ANSWER LABEL": "0 (no)"}
{"COMPOUND": "O=[N+]([O-])c1ccc2nc(/C(=N/Nc3ccccc3)C(O)c3ccco3)c(O)nc2c1 (centres undefined)", "ANSWER LABEL": "0 (no)"}
{"COMPOUND": "CCC1CN2CCc3cc(OC)c(OC)cc3C2CC1CC1c2cc(OC)c(OC)cc2CCN1C(=O)C(N)Cc1ccccc1.[O-][Cl+3]([O-])([O-])O (centres undefined)", "ANSWER LABEL": "0 (no)"}
{"COMPOUND": "CCCNCC(=O)O[C@]1(CC)C(=O)OCc2c1cc1n(c2=O)Cc2cc3ccccc3nc2-1", "ANSWER LABEL": "1 (yes)"}
{"COMPOUND": "Cc1cccc(C)c1NC(=O)C(=O)C(C#N)c1ccccc1Cl (centres undefined)", "ANSWER LABEL": "0 (no)"}
{"COMPOUND": "C=CC[C@H](C[C@H](C[C@H](C[C@H](C[C@H](C[C@H](C[C@H](C[C@H](C[C@H](C[C@H](CCCCC)OC)OC)OC)OC)OC)OC)OC)OC)OC)OC", "ANSWER LABEL": "0 (no)"}
{"COMPOUND": "N#CCCN(CCC#N)c1ccc(/C=C2\\N=C(c3cc([N+](=O)[O-])ccc3Cl)N(S(=O)(=O)c3ccccc3)C2=O)cc1", "ANSWER LABEL": "0 (no)"}
{"COMPOUND": "Clc1ccc2c(Cl)ncnc2c1", "ANSWER LABEL": "0 (no)"}

----------
This section lists log10 GI50 readings for HCT-15.
REPORTED PROPERTY: log10 GI50 (log10 of the value in µM)

{"MOLECULE": "C=C1CC(OC)(C(OC)C(=O)N(C)[C@H]2OCO[C@H]3C2O[C@H](C[C@@H](COC)OC)C(C)(C)C3OC)O[C@H](C)[C@@H]1C (stereo partly specified)", "VALUE": 1.26}
{"MOLECULE": "COC(=O)/C(=N\\N)C(C(=O)C(=O)Nc1cc(Cl)ccc1Cl)c1nc2ccc([N+](=O)[O-])cc2nc1O (stereo unspecified)", "VALUE": 1.92}
{"MOLECULE": "Nn1c(-c2ccccc2)nc2ccc(Br)cc2c1=O", "VALUE": 1.61}
{"MOLECULE": "Cn1c(N/N=C/c2ccc(Cl)cc2)nc(-c2ccc(Cl)cc2)c(C#N)c1=O", "VALUE": 1.49}
{"MOLECULE": "OC1(c2ccccc2)CC2CCC(C1)N2CCCC(O)(c1ccccc1)c1ccccc1 (stereo unspecified)", "VALUE": 1.15}
{"MOLECULE": "COc1ccc(C[C@H](N)C(=O)NC2C(CO)OC(n3cnc4c(N(C)C)ncnc43)C2O)cc1 (stereo partly specified)", "VALUE": 0.46}
{"MOLECULE": "O=S(=O)(CCCCl)SCCCCl", "VALUE": 1.37}
{"MOLECULE": "COc1ccc(/C=C/C(=O)/C=C/c2ccc(OC)cc2)cc1", "VALUE": 1.68}
{"MOLECULE": "Cc1c(F)c(N)c2c(=O)cc(-c3ccc(NC(=O)CN(C)C)c(F)c3)oc2c1F", "VALUE": 1.79}
{"MOLECULE": "CCCCCCCCCCCCCCCCP(=O)(O)OCC(N)C(=O)O (stereo unspecified)", "VALUE": 1.50}

----------
Item-by-item account of GI50
- System: SK-OV-3
- EXPERIMENT SUMMARY: NCI tumour cell line growth inhibition, 48 h
Active and inactive are the calls of the source. Cut-off read from the data, not from the text of the source: active = GI50 up to about 1.1 µM and inactive = higher.

{"COMPOUND": "COc1ccccc1NC(=O)C1=C(C)NC(C)=C(C(=O)Nc2ccccc2OC)C1c1ccc(C)cc1", "SYSTEM NAME": "SK-OV-3", "GI50": "> 100 µM (inactive)"}
{"COMPOUND": "Oc1ccc([Te]CCNCC[Te]c2ccc(O)cc2)cc1", "SYSTEM NAME": "SK-OV-3", "GI50": "25 µM (inactive)"}
{"COMPOUND": "S=C1CC(c2ccc(Cl)cc2)Sc2ccccc2N1 (stereo unspecified)", "SYSTEM NAME": "SK-OV-3", "GI50": "22.5 µM (inactive)"}
{"COMPOUND": "COc1ccccc1N(CN1C(=O)CCC1C(=O)O)C(C)=O (stereo unspecified)", "SYSTEM NAME": "SK-OV-3", "GI50": "> 100 µM (inactive)"}
{"COMPOUND": "Cc1cn(C2CCC(CO)(CF)O2)c(=O)[nH]c1=O (stereo unspecified)", "SYSTEM NAME": "SK-OV-3", "GI50": "> 100 µM (inactive)"}
{"COMPOUND": "N#Cc1cc(NC(=O)c2ccccc2)c(=O)n2c1[nH]c1ccccc12", "SYSTEM NAME": "SK-OV-3", "GI50": "28.8 µM (inactive)"}

----------
- System: CCRF-CEM
- EXPERIMENT SUMMARY: NCI tumour cell line growth inhibition, 48 h
The source made the active and inactive calls. Cut-off read from the data, not from the text of the source: active = GI50 up to about 1.1 µM and inactive = higher.
Classes used: T = active, F = inactive

{"MOLECULE": "CCC(=O)N(O)C(C)(C)C", "SYSTEM NAME": "CCRF-CEM", "ANSWER LABEL": "F"}
{"MOLECULE": "O=[N+]([O-])/C=C(\\CS(=O)(=O)c1ccccc1)c1ccc2c(c1)OCO2", "SYSTEM NAME": "CCRF-CEM", "ANSWER LABEL": "T"}
{"MOLECULE": "O=C(O)C(SC1=NC(=O)C2(NN1)c1ccccc1-c1ccccc12)SC1=NC(=O)C2(NN1)c1ccccc1-c1ccccc12", "SYSTEM NAME": "CCRF-CEM", "ANSWER LABEL": "F"}
{"MOLECULE": "CC(OC(C)(C)C)[C@H](NC(=O)OCc1ccccc1)C(=O)NC(OCc1ccccc1)[C@H]1COC(C)(C)O1 (some centres undefined)", "SYSTEM NAME": "CCRF-CEM", "ANSWER LABEL": "F"}
{"MOLECULE": "Nc1nc(OCc2ccccc2)c2nc[nH]c2n1", "SYSTEM NAME": "CCRF-CEM", "ANSWER LABEL": "F"}
{"MOLECULE": "C/C(=C1/N=C(c2ccccc2)OC1=O)c1cccs1", "SYSTEM NAME": "CCRF-CEM", "ANSWER LABEL": "F"}
{"MOLECULE": "CCOC(=O)CCC(NC(=O)c1ccc(OCc2nc3cc(C(F)(F)F)ccc3nc2-c2ccccc2)cc1)C(=O)OCC (centres undefined)", "SYSTEM NAME": "CCRF-CEM", "ANSWER LABEL": "F"}
{"MOLECULE": "CC1=C(C(=O)OCc2ccncc2)C(C2=C(C)SCCS2)C(C(=O)OCc2ccncc2)=C(C)N1", "SYSTEM NAME": "CCRF-CEM", "ANSWER LABEL": "F"}
{"MOLECULE": "COC(=O)C1=C(C(=O)OC)C(C(=O)OC)C(C(=O)OC)=C1C(=O)OC", "SYSTEM NAME": "CCRF-CEM", "ANSWER LABEL": "F"}
{"MOLECULE": "Cc1ccc(C2CC(c3ccco3)=NN2c2ccccc2)o1 (centres undefined)", "SYSTEM NAME": "CCRF-CEM", "ANSWER LABEL": "F"}
{"MOLECULE": "COc1ccc(/C=C/c2onc3c(=O)n(C)nc(-c4ccccc4)c23)cc1", "SYSTEM NAME": "CCRF-CEM", "ANSWER LABEL": "F"}
{"MOLECULE": "COC(=O)C(=O)C(C(=O)C(=O)Nc1ccccc1C(N)=O)c1nc2ccc(Cl)cc2nc1O (centres undefined)", "SYSTEM NAME": "CCRF-CEM", "ANSWER LABEL": "F"}
{"MOLECULE": "CCOP(=O)(OCC)/C(C#N)=C/c1c(C)[nH]c2ccccc12", "SYSTEM NAME": "CCRF-CEM", "ANSWER LABEL": "F"}
{"MOLECULE": "C[Si](C)(C)/N=C1\\N2C(=NC1(C(F)(F)F)C(F)(F)F)Sc1ccccc12", "SYSTEM NAME": "CCRF-CEM", "ANSWER LABEL": "F"}
{"MOLECULE": "COc1cc2cc(C(=O)N3CC(COS(C)(=O)=O)c4ccc(O)cc43)[nH]c2c(OC)c1OC (centres undefined)", "SYSTEM NAME": "CCRF-CEM", "ANSWER LABEL": "T"}
{"MOLECULE": "CC1C(OC2O[C@@H]3O[C@@]4(C)CC[C@H]5[C@H](C)CC[C@@H](C2C)[C@@]35O4)O[C@@H]2O[C@@]3(C)CC[C@H]4[C@H](C)CC[C@@H]1[C@@]24O3 (some centres undefined)", "SYSTEM NAME": "CCRF-CEM", "ANSWER LABEL": "F"}
{"MOLECULE": "N=c1oc2ccccc2cc1-c1nc2ccccc2[nH]1", "SYSTEM NAME": "CCRF-CEM", "ANSWER LABEL": "F"}
{"MOLECULE": "Oc1cc(CN2CCOCCOCCOCCOCC2)c(O)cc1CN1CCOCCOCCOCCOCC1", "SYSTEM NAME": "CCRF-CEM", "ANSWER LABEL": "F"}
{"MOLECULE": "CCCN1C(=O)CN(S(=O)(=O)c2ccc(Cl)cc2)C1=O", "SYSTEM NAME": "CCRF-CEM", "ANSWER LABEL": "F"}
